Every entry's value here was drawn from ChEMBL document CHEMBL4219034.

# Tested on: Escherichia coli
# EXPERIMENT: Antibacterial activity against Escherichia coli MTCC 443 at 100 ug/ml incubated for 12 hrs by agar disc diffusion assay
# Type: functional
# COND: MTCC 443, 12 h, read-out: IZ
Parameter threshold = 20 mm. Response is class 1 when zone of inhibition at 100 µg/mL meets or exceeds it, else class 0.

O=C1Oc2cc([N+](=O)[O-])ccc2N/C1=C\C(=O)c1ccc(C2CCCCC2)cc1	class 0

Quick check, zone of inhibition at 100 µg/mL >= 20 mm? CC1(C)S[C@@H]2[C@H](NC(=O)[C@H](N)c3ccccc3)C(=O)N2[C@H]1C(=O)O class 1

Could you verify whether the entry O=C1Oc2ccc([N+](=O)[O-])cc2N/C1=C\C(=O)C1CC1 shows zone of inhibition at 100 µg/mL of no less than 20 mm? class 0

Given O=C1Oc2ccccc2N/C1=C\C(=O)C1CC1 , state whether its zone of inhibition at 100 µg/mL is at least 20 mm. class 0

Exam item: decide whether the reported zone of inhibition at 100 µg/mL for O=C1Oc2cc([N+](=O)[O-])ccc2N/C1=C\C(=O)c1ccc(-c2ccccc2)cc1 is at least 20 mm. class 0
